TARGET OR SYSTEM: T1, CD3 on Jurkat cells (human, UniProt P07766;P09693;P04234)
T1 construct: on the surface of Jurkat cells
T1 sequence (P07766 23-207, chain 1 of 3): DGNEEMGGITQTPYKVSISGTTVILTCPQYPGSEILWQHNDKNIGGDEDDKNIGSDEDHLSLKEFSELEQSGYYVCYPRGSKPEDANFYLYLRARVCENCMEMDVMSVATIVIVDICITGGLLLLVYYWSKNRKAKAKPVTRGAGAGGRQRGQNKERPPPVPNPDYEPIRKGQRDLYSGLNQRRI
T1 sequence (P09693 23-182, chain 2 of 3): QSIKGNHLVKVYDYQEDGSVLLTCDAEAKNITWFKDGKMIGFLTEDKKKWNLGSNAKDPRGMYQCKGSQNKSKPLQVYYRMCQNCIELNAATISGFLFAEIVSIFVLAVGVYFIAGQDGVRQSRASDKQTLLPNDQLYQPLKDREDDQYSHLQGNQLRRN
T1 sequence (P04234 22-171, chain 3 of 3): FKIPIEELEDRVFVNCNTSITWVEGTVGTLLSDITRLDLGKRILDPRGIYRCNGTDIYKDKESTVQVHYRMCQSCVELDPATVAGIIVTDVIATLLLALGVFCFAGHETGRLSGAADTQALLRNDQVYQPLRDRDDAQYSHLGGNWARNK
RUN DESCRIPTION: flow cytometry on Jurkat cells, FITC-labelled secondary antibody, MFI (Example 3)
Experimental: The Jurkat cells were adjusted to a concentration of 4×10⁶ cells/ml with PBS, and the cell suspension (50 μl/well) and different concentrations of CD3 antibodies (50 μl/well) were sequentially added to a U-shaped 96-well plate and mixed evenly to achieve final antibody concentrations of 10, 2.5, 1, 0.2, 0.04, 0.008, and 0 g/ml. […] Finally, FITC-conjugated AffiniPure Rat Anti-Mouse IgG (H+L) was added for staining, and flow cytometry was used for analysis and quantification.
METRIC: EC50 (read off the curve)

VH_V1_VL_V4 (antibody, V domains shown, also called HV1-LV4) VH: EVQLVESGGGLVQPGGSLRLSCAASGFTFNNYWMSWVRQAPGKGLEWVSAITKTGGSTYYADSVKGRFTISRDNSKNTLYLQMNSLRAEDTAVYYCTREYYYDPYIDYWGQGTLVTVSS VL: QFALTQPRSVSGSLGQSVTLSCTRTTGNIGSNYVNWYQQHEGKAPKTMIYRDDKRPSGVPDRFSGSIDRSSNTASLTISGVQAEDEADYYCQSYSSGINIFGGGTKLTVL ... ~0.04 µg/mL
VH_V4_VL_V4 (antibody, V domains shown, also called HV4-LV4) VH: EVQLVESGGGLVQPGGSLRLSCAASGFTFNNYWMTWIRQAPGKGLEWVASITKTGGSTYYPDSVKGRFTISRDNSKSTLYLQMNSLRAEDTAVYYCTREYYYDPYIDYWGQGTLVTVSS VL: QFALTQPRSVSGSLGQSVTLSCTRTTGNIGSNYVNWYQQHEGKAPKTMIYRDDKRPSGVPDRFSGSIDRSSNTASLTISGVQAEDEADYYCQSYSSGINIFGGGTKLTVL ... ~0.04 µg/mL
VH_V3_VL_V4 (antibody, V domains shown, also called HV3-LV4) VH: EVQLVESGGGLVQPGRSLRLSCAASGFTFNNYWMSWVRQAPGKGLEWVASITKTGGSTYYPDSVKGRFTISRDNAKSTLYLQMNSLRSEDTATYYCTREYYYDPYIDYWGQGVLVTVSS VL: QFALTQPRSVSGSLGQSVTLSCTRTTGNIGSNYVNWYQQHEGKAPKTMIYRDDKRPSGVPDRFSGSIDRSSNTASLTISGVQAEDEADYYCQSYSSGINIFGGGTKLTVL ... ~0.04 µg/mL
VH_V2_VL_V4 (antibody, V domains shown, also called HV2-LV4) VH: EVQLVESGGGLVQPGRSLRLSCAASGFTFNNYWMSWVRQAPGKGLEWVSAITKTGGSTYYPDSVKGRFTISRDNSKSTLYLQMNSLRAEDTATYYCTREYYYDPYIDYWGQGVLVTVSS VL: QFALTQPRSVSGSLGQSVTLSCTRTTGNIGSNYVNWYQQHEGKAPKTMIYRDDKRPSGVPDRFSGSIDRSSNTASLTISGVQAEDEADYYCQSYSSGINIFGGGTKLTVL ... ~0.05 µg/mL
C3002HC-LV4 (antibody, V domains shown) VH: EVQLVESGGGLVQPGGSLRLSCAASGFTFNNYWMTWIRQAPGKGLEWVASITKTGGSTYYPDSVKGRFTISRDNAKNSLYLQMNSLRAEDTAVYYCTREYYYDPYIDYWGQGTMVTVSS VL: QFALTQPRSVSGSLGQSVTLSCTRTTGNIGSNYVNWYQQHEGKAPKTMIYRDDKRPSGVPDRFSGSIDRSSNTASLTISGVQAEDEADYYCQSYSSGINIFGGGTKLTVL ... ~0.05 µg/mL
C3002-2-HC-LV4 (antibody, V domains shown) VH: EVQLVESGGGLVQPGGSLRLSCAASGFTFNNYWMTWIRQAPGKGLEWVASITKTGGSTYYPDSVKGRFTISRDNAKNSLYLQMNSLRAEDTATYYCTREYYYDPYIDYWGQGVMVTVSS VL: QFALTQPRSVSGSLGQSVTLSCTRTTGNIGSNYVNWYQQHEGKAPKTMIYRDDKRPSGVPDRFSGSIDRSSNTASLTISGVQAEDEADYYCQSYSSGINIFGGGTKLTVL ... ~0.04 µg/mL

src = patent US20260184786A1
